What ABSOLUTE EOSINOPHIL was measured for each of the following?
Organism: Rattus norvegicus
Assay: DrugMatrix - Regimen: Daily Repeat
Type: toxicity, organism-based, Sprague-Dawley
Design: regimen Daily Repeat, gender Male, age 6-8 weeks
Conditions: in vivo, po, 0 mg/kg, 120 h, tissue Blood, route oral GAVAGE, dose level Control, time 5 day, vehicle 100 % WATER
Your answer should be a plain number; it is taken to be in CELLS/uL.

Query string: Look at this compound and give its reported ABSOLUTE EOSINOPHIL. NCC1(CC(=O)O)CCCCC1
Result string: 66.5

Query string: Look at this compound and give its reported ABSOLUTE EOSINOPHIL. Cn1cnc([N+](=O)[O-])c1Sc1ncnc2nc[nH]c12
Result string: 34.5

Query string: Look at this compound and give its reported ABSOLUTE EOSINOPHIL. C[C@]12Cc3c[nH]nc3C[C@@H]1CC[C@@H]1[C@@H]2CC[C@@]2(C)[C@H]1CC[C@]2(C)O
Result string: 31.17

Query string: Look at this compound and give its reported ABSOLUTE EOSINOPHIL. O=C1NC(=O)C(c2ccccc2)(c2ccccc2)N1
Result string: 125

Query string: Look at this compound and give its reported ABSOLUTE EOSINOPHIL. COc1ccc(C(CN(C)C)C2(O)CCCCC2)cc1 (centres undefined)
Result string: 24

Query string: Look at this compound and give its reported ABSOLUTE EOSINOPHIL. Fc1ccc([C@@H]2CCNC[C@H]2COc2ccc3c(c2)OCO3)cc1
Result string: 31.17

Query string: Look at this compound and give its reported ABSOLUTE EOSINOPHIL. CC1(C)S[C@@H]2[C@H](NC(=O)[C@H](N)c3ccc(O)cc3)C(=O)N2[C@H]1C(=O)O
Result string: 0

Query string: Look at this compound and give its reported ABSOLUTE EOSINOPHIL. CNCCC=C1c2ccccc2CCc2ccccc21
Result string: 125

Query string: Look at this compound and give its reported ABSOLUTE EOSINOPHIL. Nc1ccc(S(=O)(=O)Nc2ccnn2-c2ccccc2)cc1
Result string: 22.83

Query string: Look at this compound and give its reported ABSOLUTE EOSINOPHIL. CC(C)(S)[C@@H](N)C(=O)O
Result string: 0

Query string: Look at this compound and give its reported ABSOLUTE EOSINOPHIL. NC(=O)c1ncn([C@@H]2O[C@H](CO)[C@@H](O)[C@H]2O)n1
Result string: 21

Query string: Look at this compound and give its reported ABSOLUTE EOSINOPHIL. CN1CCN(C(=O)OC2c3nccnc3C(=O)N2c2ccc(Cl)cn2)CC1 (centres undefined)
Result string: 26.67

Query string: Look at this compound and give its reported ABSOLUTE EOSINOPHIL. COc1cccc(C2(O)CCCCC2CN(C)C)c1 (centres undefined)
Result string: 31.17

Query string: Look at this compound and give its reported ABSOLUTE EOSINOPHIL. CC1COc2c(N3CCN(C)CC3)c(F)cc3c(=O)c(C(=O)O)cn1c23 (centres undefined)
Result string: 80

Query string: Look at this compound and give its reported ABSOLUTE EOSINOPHIL. Cc1cc(NS(=O)(=O)c2ccc(N)cc2)no1
Result string: 24

Query string: Look at this compound and give its reported ABSOLUTE EOSINOPHIL. CC(CCc1ccccc1)NCC(O)c1ccc(O)c(C(N)=O)c1 (centres undefined)
Result string: 0

Query string: Look at this compound and give its reported ABSOLUTE EOSINOPHIL. Clc1ccc(C(c2ccccc2Cl)C(Cl)Cl)cc1 (centres undefined)
Result string: 19.33

Query string: Look at this compound and give its reported ABSOLUTE EOSINOPHIL. NNC(=O)c1ccncc1
Result string: 23.5

Query string: Look at this compound and give its reported ABSOLUTE EOSINOPHIL. CN1CCC[C@H]1c1cccnc1
Result string: 80

----------
What GLUCOSE was measured for each of the following?
Species on record: Rattus norvegicus
Assay: DrugMatrix - Regimen: Daily Repeat
Format: toxicity, organism-based, Sprague-Dawley
Parameters: regimen Daily Repeat, gender Male, age 6-8 weeks
Settings: in vivo, po, 1500 mg/kg, 72 h, tissue Plasma, route oral GAVAGE, dose level High, time 3 day, vehicle .5 % CMC
Your answer should be a plain number; it is taken to be in mg/dL.

Query string: Look at this compound and give its reported GLUCOSE. CCOC(=O)[C@H](CCc1ccccc1)N[C@@H](C)C(=O)N1[C@H](C(=O)O)C[C@@H]2CCC[C@@H]21
Result string: 192.67

Query string: Look at this compound and give its reported GLUCOSE. O=C1CCc2cc(OCCCCc3nnnn3C3CCCCC3)ccc2N1 [CILOSTAZOL]
Result string: 178.33

Query string: Look at this compound and give its reported GLUCOSE. NS(=O)(=O)c1cc2c(cc1Cl)NCNS2(=O)=O [HYDROCHLOROTHIAZIDE]
Result string: 159.33

Query string: Look at this compound and give its reported GLUCOSE. COC(=O)c1ccc(O)cc1 [METHYLPARABEN]
Result string: 165.67

----------
Organism: Rattus norvegicus
Assay: DrugMatrix - Regimen: Daily Repeat
Type: toxicity, organism-based, Sprague-Dawley
Set-up: regimen Daily Repeat, gender Male, age 6-8 weeks
Details: in vivo, po, 0 mg/kg, 72 h, tissue Blood, route oral GAVAGE, dose level Control, time 3 day, vehicle 100 % WATER
// assign fulfilled if ABSOLUTE SEGMENTED NEUTROPHIL falls strictly below 1000 CELLS/uL, else not fulfilled (ties count as not fulfilled)

Query string: A record lists Cn1cnc([N+](=O)[O-])c1Sc1ncnc2nc[nH]c12 . Is its ABSOLUTE SEGMENTED NEUTROPHIL below 1000 CELLS/uL?
Result string: fulfilled

Query string: A record lists COc1ccc(C(CN(C)C)C2(O)CCCCC2)cc1 (centres undefined) . Is its ABSOLUTE SEGMENTED NEUTROPHIL below 1000 CELLS/uL?
Result string: not fulfilled

Query string: A record lists Clc1ccc(C(c2ccccc2Cl)C(Cl)Cl)cc1 (centres undefined) . Is its ABSOLUTE SEGMENTED NEUTROPHIL below 1000 CELLS/uL?
Result string: fulfilled

Query string: A record lists Cc1cc(NS(=O)(=O)c2ccc(N)cc2)no1 . Is its ABSOLUTE SEGMENTED NEUTROPHIL below 1000 CELLS/uL?
Result string: not fulfilled

Query string: A record lists COc1cccc(C2(O)CCCCC2CN(C)C)c1 (centres undefined) . Is its ABSOLUTE SEGMENTED NEUTROPHIL below 1000 CELLS/uL?
Result string: fulfilled

Query string: A record lists Fc1ccc([C@@H]2CCNC[C@H]2COc2ccc3c(c2)OCO3)cc1 . Is its ABSOLUTE SEGMENTED NEUTROPHIL below 1000 CELLS/uL?
Result string: fulfilled

Query string: A record lists NCC1(CC(=O)O)CCCCC1 . Is its ABSOLUTE SEGMENTED NEUTROPHIL below 1000 CELLS/uL?
Result string: not fulfilled

Query string: A record lists C[C@]12Cc3c[nH]nc3C[C@@H]1CC[C@@H]1[C@@H]2CC[C@@]2(C)[C@H]1CC[C@]2(C)O . Is its ABSOLUTE SEGMENTED NEUTROPHIL below 1000 CELLS/uL?
Result string: fulfilled

Query string: A record lists O=C1NC(=O)C(c2ccccc2)(c2ccccc2)N1 . Is its ABSOLUTE SEGMENTED NEUTROPHIL below 1000 CELLS/uL?
Result string: not fulfilled

Query string: A record lists CC1(C)S[C@@H]2[C@H](NC(=O)[C@H](N)c3ccc(O)cc3)C(=O)N2[C@H]1C(=O)O . Is its ABSOLUTE SEGMENTED NEUTROPHIL below 1000 CELLS/uL?
Result string: not fulfilled

Query string: A record lists CC(C)(S)[C@@H](N)C(=O)O . Is its ABSOLUTE SEGMENTED NEUTROPHIL below 1000 CELLS/uL?
Result string: fulfilled

Query string: A record lists Nc1ccc(S(=O)(=O)Nc2ccnn2-c2ccccc2)cc1 . Is its ABSOLUTE SEGMENTED NEUTROPHIL below 1000 CELLS/uL?
Result string: not fulfilled

Query string: A record lists CC(CCc1ccccc1)NCC(O)c1ccc(O)c(C(N)=O)c1 (centres undefined) . Is its ABSOLUTE SEGMENTED NEUTROPHIL below 1000 CELLS/uL?
Result string: not fulfilled

Query string: A record lists CNCCC=C1c2ccccc2CCc2ccccc21 . Is its ABSOLUTE SEGMENTED NEUTROPHIL below 1000 CELLS/uL?
Result string: not fulfilled

Query string: A record lists CN1CCN(C(=O)OC2c3nccnc3C(=O)N2c2ccc(Cl)cn2)CC1 (centres undefined) . Is its ABSOLUTE SEGMENTED NEUTROPHIL below 1000 CELLS/uL?
Result string: not fulfilled

Query string: A record lists NNC(=O)c1ccncc1 . Is its ABSOLUTE SEGMENTED NEUTROPHIL below 1000 CELLS/uL?
Result string: not fulfilled

Ref: ChEMBL document CHEMBL3885881
